- assaySummary: Plasma stability (HPLC, Cerep)
- Assay type: in vitro ADME
- testConditions: 1 μM in human plasma; read-out: calculated half-life
readoutName: half-life

Task: Form field: reported half-life of CC(C)C[C@@H]1NC(=O)CNC(=O)[C@H](Cc2ccccc2)NC(=O)[C@@H](N)Cc2ccc(cc2)N=Nc2cc(ccc2O)C[C@@H](C(N)=O)NC(=O)[C@H](Cc2c[nH]c3ccccc23)NC(=O)[C@H](CCCNC(=N)N)NC1=O [Peptide 6, Pap-Phe-Gly-Leu-Arg-Trp-Tyr-NH2]
Output: > 2 h
